Parameter Competitive inhibition rate of the probe binding, Site II: see the listing below.
Target: site II of HSA (Homo sapiens, UniProt P02768)
Sequence (P02768 25-609): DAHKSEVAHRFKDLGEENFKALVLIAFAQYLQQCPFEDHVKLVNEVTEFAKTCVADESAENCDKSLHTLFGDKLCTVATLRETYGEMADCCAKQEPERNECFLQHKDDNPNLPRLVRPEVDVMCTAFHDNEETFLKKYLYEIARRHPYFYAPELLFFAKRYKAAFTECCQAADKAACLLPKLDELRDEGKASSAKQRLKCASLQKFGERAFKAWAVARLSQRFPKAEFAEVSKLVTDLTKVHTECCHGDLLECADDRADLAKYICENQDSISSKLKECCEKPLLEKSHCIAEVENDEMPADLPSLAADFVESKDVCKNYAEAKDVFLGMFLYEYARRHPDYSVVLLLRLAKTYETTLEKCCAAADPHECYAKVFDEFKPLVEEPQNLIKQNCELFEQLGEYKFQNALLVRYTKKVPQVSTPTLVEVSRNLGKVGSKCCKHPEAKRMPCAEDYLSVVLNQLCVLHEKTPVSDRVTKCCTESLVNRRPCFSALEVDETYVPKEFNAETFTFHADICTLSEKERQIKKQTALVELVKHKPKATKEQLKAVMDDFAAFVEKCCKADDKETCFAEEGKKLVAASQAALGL
Assay: Fluorescence competitive binding assay with site‐selective probe BD140
Details: BD140 probe; 100 µM; n = 3, mean ± SE
reported property: Competitive inhibition rate of the probe binding, Site II (%)

| molecule | value reported |
| --- | --- |
| O=C1C[C@@H](c2ccc(O[C@@H]3O[C@H](C(=O)O)[C@@H](O)[C@H](O)[C@H]3O)cc2)Oc2cc(O)cc(O)c21 [N4′G, Naringenin 4′‐glucuronide, reference compound] | 2.4 |
| O=C1C[C@@H](c2ccc(O)cc2)Oc2cc(O[C@@H]3O[C@H](C(=O)O)[C@@H](O)[C@H](O)[C@H]3O)cc(O)c21 [N7G, naringenin 7‐glucuronide, reference compound] | 9.6 |
